tgt: T1, Homo sapiens factor Bb protein (human, UniProt P00751 260-764)
T1 construct: Bought from CompTech (A155); also called complement factor Bb; human factor Bb
test: SPR single cycle kinetics, IgG on Protein A chip, factor Bb analyte
quantityName: koff (s⁻¹)
Answers are plain numbers, in s⁻¹.

VH6/Vκ6 (antibody, V domains shown, Redesigned variant; cloned into the appropriate expression vector (IgG4v1 and kappa were used in the first round)) VH: EVQLVESGGGLVKPGGSLRLSCAASGFTFSNYAMSWVRQAPGKRLEWVATISNRGSYTYYPDSVKGRFTISRDNAKNSLYLQMNSLRAEDTALYYCARERPMDYWGQGTLVTVSS VL: DIVMTQSPSFLSASVGDRVTITCKASQDVGTAVAWYQQKPGKAPKLLIYWASTRHTGVPDRFTGSGSGTDFTLTISSLQSEDFAVYFCHQHSSNPLTFGQGTKLEIK; 0.00158
VH0/Vκ7 (antibody, V domains shown, Control antibody of the redesign round; cloned into the appropriate expression vector (IgG4v1 and kappa were used in the first round), HEK EBNA supernatant) VH: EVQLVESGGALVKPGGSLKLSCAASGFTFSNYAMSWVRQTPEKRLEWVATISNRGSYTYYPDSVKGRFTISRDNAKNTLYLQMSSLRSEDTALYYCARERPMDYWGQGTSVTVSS VL: DIQMTQSPSTLSASVGDRVTITCKASQDVGTAVAWYQQKPGKAPKLLIYWASTRHTGVPDRFSGSGSGTDFTLTISSLQAEDFAVYFCHQHSSNPLTFGQGTKLEIK; 0.00105

Q: Specify measured koff for VH0/Vκ3 (antibody, V domains shown, constant regions not restated, the humanisation used IgG4v1 heavy chain and kappa light chain vectors) VH: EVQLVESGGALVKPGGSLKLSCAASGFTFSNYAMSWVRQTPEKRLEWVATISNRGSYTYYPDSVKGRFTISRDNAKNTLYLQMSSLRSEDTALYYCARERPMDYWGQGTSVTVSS VL: DIQMTQSPSTLSASVGDRVTITCKASQDVGTAVAWYQQKPGQPPKLLIYWASTRHTGVPDRFSGSGSGTDFTLTISSLQAEDFAVYFCHQHSSNPLTFGQGTKLEIK .
A: 0.00128
